- target_or_system: T1, Human CD3eg linker (human)
- T1 construct: Single-chain construct; also called recombinant human CD3
- T1 chain: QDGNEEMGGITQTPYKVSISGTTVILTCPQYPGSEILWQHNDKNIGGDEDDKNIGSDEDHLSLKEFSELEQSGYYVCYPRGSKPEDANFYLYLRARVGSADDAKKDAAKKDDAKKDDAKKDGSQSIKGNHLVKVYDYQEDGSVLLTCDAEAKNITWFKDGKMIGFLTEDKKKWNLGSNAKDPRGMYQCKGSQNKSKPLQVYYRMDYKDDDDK
- assay_text: SPR; fold vs parent H183/L072
experimental_endpoint: fold change of affinity (fold)
Write the number in fold without appending the unit.

Below: 2 binders and their reported fold change of affinity.
H183/L072 VL F55R (antibody, name in Kabat numbering, V domains shown) VH: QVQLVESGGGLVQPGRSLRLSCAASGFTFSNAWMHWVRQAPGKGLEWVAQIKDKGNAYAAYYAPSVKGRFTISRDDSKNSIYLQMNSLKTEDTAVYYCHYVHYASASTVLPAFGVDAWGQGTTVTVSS VL: DIVMTQSPLSLPVTPGEPASISCQASQELVHMNRNTYLHWYQQKPGQAPRLLIYKVSNRRPGVPDRFSGSGSGTDFTLKISRVEAEDVGVYYCAQGTSVPFTFGQGTKLEIK = 4
H183/L072 VL P56F (antibody, name in Kabat numbering, V domains shown) VH: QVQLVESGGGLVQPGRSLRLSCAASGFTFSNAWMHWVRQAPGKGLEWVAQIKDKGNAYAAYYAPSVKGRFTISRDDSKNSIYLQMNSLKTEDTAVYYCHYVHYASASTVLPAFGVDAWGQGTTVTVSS VL: DIVMTQSPLSLPVTPGEPASISCQASQELVHMNRNTYLHWYQQKPGQAPRLLIYKVSNRFFGVPDRFSGSGSGTDFTLKISRVEAEDVGVYYCAQGTSVPFTFGQGTKLEIK = 3.3

Let us move to another entry and its fold change of affinity.
Entry under review: H183/L072 VL E27aM (antibody, name in Kabat numbering, V domains shown) VH: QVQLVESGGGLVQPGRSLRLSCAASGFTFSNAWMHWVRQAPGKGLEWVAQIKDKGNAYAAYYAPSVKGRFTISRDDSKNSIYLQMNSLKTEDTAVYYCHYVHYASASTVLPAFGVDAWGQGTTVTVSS VL: DIVMTQSPLSLPVTPGEPASISCQASQMLVHMNRNTYLHWYQQKPGQAPRLLIYKVSNRFPGVPDRFSGSGSGTDFTLKISRVEAEDVGVYYCAQGTSVPFTFGQGTKLEIK . Reported fold change of affinity?
1.2

Source of measurements: patent US20210388087A1
